System: NCI-H1792 (Lung Adenocarcinoma)
test-protocol: combination Emax (second highest fraction inhibited in the dose matrix, 72 h); higher = more inhibition; extreme values may be limits of the assay
combination Emax by entry:
Kindly provide the number alone.

### Prompt If you can, please state the reported combination Emax value of CCN(CCO)CCCOc1ccc2c(Nc3cc(CC(=O)Nc4cccc(F)c4)[nH]n3)ncnc2c1 [AZD2811] + O=C(c1cc(Cc2n[nH]c(=O)c3ccccc23)ccc1F)N1CCN(C(=O)C2CC2)CC1 [Olaparib] (first compound max 1 µM, 7x7, partner max 10 µM) .
### Response 0.175

Now look at this one.
### Prompt If you can, please state the reported combination Emax value of NC1(C(=O)N[C@@H](CCO)c2ccc(Cl)cc2)CCN(c2ncnc3[nH]ccc23)CC1 [Capivasertib] + Cn1cnc2c(F)c(Nc3ccc(Br)cc3Cl)c(C(=O)NOCCO)cc21 [Selumetinib] (first compound max 10 µM, 7x7, partner max 10 µM) .
### Response 0.504

###

System: MKN28 (Gastric Carcinoma)
test-protocol: combination Emax (second highest fraction inhibited in the dose matrix, 72 h); higher = more inhibition; extreme values may be limits of the assay
combination Emax by entry:
Kindly provide the number alone.

These recorded examples may help you get a feel for the data.
### Prompt If you can, please state the reported combination Emax value of Cc1c2c(nn1C)CSCc1cc(n(C)n1)CSc1cc(c3ccccc3c1)OCCCc1c(C(=O)O)n(C)c3c-2c(Cl)ccc13 [AZD5991] + CC(=O)O[C@H]1C(=O)[C@@]2(C)[C@H]([C@H](OC(=O)c3ccccc3)[C@]3(O)C[C@H](OC(=O)[C@H](O)[C@@H](NC(=O)c4ccccc4)c4ccccc4)C(C)=C1C3(C)C)[C@]1(OC(C)=O)CO[C@@H]1C[C@@H]2O [Paclitaxel] (first compound max 1 µM, 7x7, partner max 3 µM) .
### Response 0.49

### Prompt If you can, please state the reported combination Emax value of CN(CCO)CC[C@H](CSc1ccccc1)Nc1ccc(S(=O)(=O)NC(=O)c2ccc(N3CCC([C@@H](O)c4ccccc4-c4ccc(Cl)cc4)CC3)cc2)cc1S(=O)(=O)C(F)(F)F [AZD4320] + C[C@@H]1COCCN1C2=NC(=NC(=C2)C3(CC3)[S@](=N)(=O)C)C4=C5C=CNC5=NC=C4 [AZD6738] (first compound max 1 µM, 7x7, partner max 10 µM) .
### Response 0.442

### Prompt If you can, please state the reported combination Emax value of COc1nnc2ccc(N3CCC(c4ccc(OCCN5CCN(C)C(=O)[C@H]5C)cc4)CC3)nn12 [AZD5153] + CC1(C)CCC(CN2CCN(c3ccc(C(=O)NS(=O)(=O)c4ccc(NCC5CCOCC5)c([N+](=O)[O-])c4)c(Oc4cnc5[nH]ccc5c4)c3)CC2)=C(c2ccc(Cl)cc2)C1 [Venetoclax] (first compound max 1 µM, 7x7, partner max 1 µM) .
### Response 0.446

### Prompt If you can, please state the reported combination Emax value of COc1cccc(OCCCN)c1-c1cc(Nc2cnc(C#N)cn2)n[nH]1 [Prexasertib] + O=C(c1cc(Cc2n[nH]c(=O)c3ccccc23)ccc1F)N1CCN(C(=O)C2CC2)CC1 [Olaparib] (first compound max 1 µM, 7x7, partner max 10 µM) .
### Response 0.46

### Prompt If you can, please state the reported combination Emax value of Cn1cnc2c(F)c(Nc3ccc(Br)cc3Cl)c(C(=O)NOCCO)cc21 [Selumetinib] + C[C@@H]1COCCN1C2=NC(=NC(=C2)C3(CC3)[S@](=N)(=O)C)C4=C5C=CNC5=NC=C4 [AZD6738] (first compound max 10 µM, 7x7, partner max 10 µM) .
### Response 0.202

New cases:
### Prompt If you can, please state the reported combination Emax value of COc1cc2c(cc1OCCCCCOc1cc3c(cc1OC)C(=O)N1C=C(C)C[C@H]1C=N3)N=C[C@@H]1CC(C)=CN1C2=O [SG3199] + O=C(c1cc(Cc2n[nH]c(=O)c3ccccc23)ccc1F)N1CCN(C(=O)C2CC2)CC1 [Olaparib] (first compound max 0.001 µM, 7x7, partner max 10 µM) .
### Response 0.0709

### Prompt If you can, please state the reported combination Emax value of COc1nnc2ccc(N3CCC(c4ccc(OCCN5CCN(C)C(=O)[C@H]5C)cc4)CC3)nn12 [AZD5153] + Cc1c2c(nn1C)CSCc1cc(n(C)n1)CSc1cc(c3ccccc3c1)OCCCc1c(C(=O)O)n(C)c3c-2c(Cl)ccc13 [AZD5991] (first compound max 1 µM, 7x7, partner max 1 µM) .
### Response 0.462

###

Bliss excess by entry:
System: MFM-223 (Breast Carcinoma)
test-protocol: Bliss excess, mean over the matrix (fraction); higher = more synergy
Kindly provide the number alone.

These recorded examples may help you get a feel for the data.
### Prompt If you can, please state the reported Bliss excess value of NC1(C(=O)N[C@@H](CCO)c2ccc(Cl)cc2)CCN(c2ncnc3[nH]ccc23)CC1 [Capivasertib] + CC(=O)c1c(C)c2cnc(Nc3ccc(N4CCNCC4)cn3)nc2n(C2CCCC2)c1=O [Palbociclib] (first compound max 10 µM, 7x7, partner max 10 µM) .
### Response 0.0091

### Prompt If you can, please state the reported Bliss excess value of Cc1c2c(nn1C)CSCc1cc(n(C)n1)CSc1cc(c3ccccc3c1)OCCCc1c(C(=O)O)n(C)c3c-2c(Cl)ccc13 [AZD5991] + Cn1cnc2c(F)c(Nc3ccc(Br)cc3Cl)c(C(=O)NOCCO)cc21 [Selumetinib] (first compound max 1 µM, 7x7, partner max 3 µM) .
### Response -0.0199

New cases:
### Prompt If you can, please state the reported Bliss excess value of Cc1c2c(nn1C)CSCc1cc(n(C)n1)CSc1cc(c3ccccc3c1)OCCCc1c(C(=O)O)n(C)c3c-2c(Cl)ccc13 [AZD5991] + C1CN(CCC1(C(=O)N[C@@H](CCO)C2=CC=C(C=C2)Cl)N)C3=NC=NC4=C3C=CN4 [Capivasertib] (first compound max 1 µM, 7x7, partner max 3 µM) .
### Response 0.0005

### Prompt If you can, please state the reported Bliss excess value of CN(CCO)CC[C@H](CSc1ccccc1)Nc1ccc(S(=O)(=O)NC(=O)c2ccc(N3CCC([C@@H](O)c4ccccc4-c4ccc(Cl)cc4)CC3)cc2)cc1S(=O)(=O)C(F)(F)F [AZD4320] + Cc1cc2ncnn2cc1Nc1ncc2c(n1)n(C1CCOCC1)c(=O)n2C [AZD7648] (first compound max 1 µM, 7x7, partner max 10 µM) .
### Response -0.0229

###

System: DND-41 (T-Lymphoblastic Leukemia)
test-protocol: Bliss excess, mean over the matrix (fraction); higher = more synergy
Bliss excess by entry:
Kindly provide the number alone.

These recorded examples may help you get a feel for the data.
### Prompt Find Bliss excess (DND-41 (T-Lymphoblastic Leukemia)) for the entry COc1cccc(OCCCN)c1-c1cc(Nc2cnc(C#N)cn2)n[nH]1 [Prexasertib] + O=C(c1cc(Cc2n[nH]c(=O)c3ccccc23)ccc1F)N1CCN(C(=O)C2CC2)CC1 [Olaparib] (first compound max 1 µM, 7x7, partner max 10 µM)
### Response -0.101

### Prompt Find Bliss excess (DND-41 (T-Lymphoblastic Leukemia)) for the entry Cc1cc2ncnn2cc1Nc1ncc2c(n1)n(C1CCOCC1)c(=O)n2C [AZD7648] + CCN(CCO)CCCOc1ccc2c(Nc3cc(CC(=O)Nc4cccc(F)c4)[nH]n3)ncnc2c1 [AZD2811] (first compound max 10 µM, 7x7, partner max 1 µM)
### Response 0.0308

### Prompt Find Bliss excess (DND-41 (T-Lymphoblastic Leukemia)) for the entry CN(CCO)CC[C@H](CSc1ccccc1)Nc1ccc(S(=O)(=O)NC(=O)c2ccc(N3CCC([C@@H](O)c4ccccc4-c4ccc(Cl)cc4)CC3)cc2)cc1S(=O)(=O)C(F)(F)F [AZD4320] + CCN(CCO)CCCOc1ccc2c(Nc3cc(CC(=O)Nc4cccc(F)c4)[nH]n3)ncnc2c1 [AZD2811] (first compound max 1 µM, 7x7, partner max 1 µM)
### Response 0.0382

New cases:
### Prompt Find Bliss excess (DND-41 (T-Lymphoblastic Leukemia)) for the entry CC(=O)c1c(C)c2cnc(Nc3ccc(N4CCNCC4)cn3)nc2n(C2CCCC2)c1=O [Palbociclib] + Cc1c2c(nn1C)CSCc1cc(n(C)n1)CSc1cc(c3ccccc3c1)OCCCc1c(C(=O)O)n(C)c3c-2c(Cl)ccc13 [AZD5991] (first compound max 10 µM, 7x7, partner max 1 µM)
### Response 0.0043

### Prompt Find Bliss excess (DND-41 (T-Lymphoblastic Leukemia)) for the entry Cc1c2c(nn1C)CSCc1cc(n(C)n1)CSc1cc(c3ccccc3c1)OCCCc1c(C(=O)O)n(C)c3c-2c(Cl)ccc13 [AZD5991] + CN(C)CCCOc1ccc(-c2ccc3ncc4c(c3c2)n(C2CCOCC2)c(=O)n4C)cn1 [AZD0156] (first compound max 1 µM, 7x7, partner max 1 µM)
### Response 0.0195

### Prompt Find Bliss excess (DND-41 (T-Lymphoblastic Leukemia)) for the entry CN(C)CCCOc1ccc(-c2ccc3ncc4c(c3c2)n(C2CCOCC2)c(=O)n4C)cn1 [AZD0156] + C=CCn1c(=O)c2cnc(Nc3ccc(N4CCN(C)CC4)cc3)nc2n1-c1cccc(C(C)(C)O)n1 [AZD1775] (first compound max 1 µM, partner max 1 µM)
### Response -0.0029

### Prompt Find Bliss excess (DND-41 (T-Lymphoblastic Leukemia)) for the entry CC1(C)CCC(CN2CCN(c3ccc(C(=O)NS(=O)(=O)c4ccc(NCC5CCOCC5)c([N+](=O)[O-])c4)c(Oc4cnc5[nH]ccc5c4)c3)CC2)=C(c2ccc(Cl)cc2)C1 [Venetoclax] + C[C@@H]1COCCN1C2=NC(=NC(=C2)C3(CC3)[S@](=N)(=O)C)C4=C5C=CNC5=NC=C4 [AZD6738] (first compound max 1 µM, 7x7, partner max 10 µM)
### Response 0.0191

### Prompt Find Bliss excess (DND-41 (T-Lymphoblastic Leukemia)) for the entry C[C@@H](Oc1cc(-c2cnn(C3CCNCC3)c2)cnc1N)c1c(Cl)ccc(F)c1Cl [Crizotinib] + CC1=C(C(=CC=C1)Cl)NC(=O)C2=CN=C(S2)NC3=CC(=NC(=N3)C)N4CCN(CC4)CCO [Dasatinib] (first compound max 10 µM, 7x7, partner max 2 µM)
### Response -0.0124
